This collection of values is drawn from patent US9790262B2.

# subject of test: GLP-1 receptor (UniProt P43220 24-463, limits assumed)
# procedure text: cell-based or functional assay
Non-standard residues stand in square brackets, D forms with d. No end group written: not given here. APC = 3-aminopyrrolidine-4-carboxylic acid (cyclic beta amino acid); ACPC = 2-aminocyclopentanecarboxylic acid (cyclic beta amino acid); Aib = CC(C)(N)C(=O)O
Could you label it condition met if measured cAMP agonist: Max Response is 40% or higher, and condition not met otherwise?

Here are 4 binders together with their reported answers.
binder: YXEGTFTSDYSXYLXKQAXXEXVNWXLAX (B = alpha-aminoisobutyric acid (Aib) at positions 2 and 20; alpha-to-beta3 amino acid replacement(s) at the bold and underlined position(s) of the printed sequence, which this text does not show) [2004]
group: condition not met

binder: YXEGTFTSDYSIYXDKXAAXXFVXWLLXG (B = alpha-aminoisobutyric acid (Aib) at positions 2 and 20; alpha-to-beta3 amino acid replacement(s) at the bold and underlined position(s) of the printed sequence, which this text does not show) [2005]
group: condition met

binder: Y[Aib]EGTFTSDYSIYLD[APC]QA[ACPC][Aib]EF[ACPC]NW[ACPC]LAG [2008]
group: condition met

binder: Y[Aib]EGTFTSDYSIYLDK[ACPC]AA[Aib][ACPC]FV[APC]WLL[ACPC]G [2010]
group: condition met

For the next question, use this binder.
Task: // inclusive: cAMP agonist: Max Response at least 40%? input: YXEGTFTSDYSXYLDXQAXXEFXNWXLAG (B = alpha-aminoisobutyric acid (Aib) at positions 2 and 20; alpha-to-beta3 amino acid replacement(s) at the bold and underlined position(s) of the printed sequence, which this text does not show) [2001]
Result: condition not met
